TARGET_OF_ASSAY: Calpain-1 catalytic subunit (Homo sapiens)
Sequence (P07384 whole entry): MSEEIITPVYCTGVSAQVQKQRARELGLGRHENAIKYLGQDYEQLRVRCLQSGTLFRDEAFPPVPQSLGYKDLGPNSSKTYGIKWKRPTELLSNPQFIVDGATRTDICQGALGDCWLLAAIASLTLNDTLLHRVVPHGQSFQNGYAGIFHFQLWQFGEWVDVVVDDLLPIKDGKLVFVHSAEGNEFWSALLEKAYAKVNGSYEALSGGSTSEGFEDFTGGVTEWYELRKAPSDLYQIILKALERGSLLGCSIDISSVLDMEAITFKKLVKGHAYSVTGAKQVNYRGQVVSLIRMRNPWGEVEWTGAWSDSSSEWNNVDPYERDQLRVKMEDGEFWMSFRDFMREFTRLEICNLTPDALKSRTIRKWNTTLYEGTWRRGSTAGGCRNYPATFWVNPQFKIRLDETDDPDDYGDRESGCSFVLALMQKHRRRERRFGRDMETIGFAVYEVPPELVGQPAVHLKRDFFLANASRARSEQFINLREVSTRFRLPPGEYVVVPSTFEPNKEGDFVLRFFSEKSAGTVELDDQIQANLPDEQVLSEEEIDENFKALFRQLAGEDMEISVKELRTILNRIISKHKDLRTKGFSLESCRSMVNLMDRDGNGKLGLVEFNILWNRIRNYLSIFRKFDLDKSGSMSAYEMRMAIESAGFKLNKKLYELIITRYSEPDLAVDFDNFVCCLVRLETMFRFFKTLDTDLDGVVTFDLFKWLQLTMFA
TEST_DESCRIPTION: Inhibition of calpain-1 (unknown origin) using Suc-LY-AMC as substrate by fluorescence assay
Peptide text beside a SMILES is read from it. * marks the point of attachment. X1 = CC(C)C[C@H](NC(=O)[C@H]1O[C@@H]1C(=O)*)C(=O)N1CCC[C@H]1C(=O)N[C@H](C(N)=O)[C@@H](C)O
ASSAY_METRIC: Ki (µM)

P = CC(C)C[C@H](NC(=O)[C@H]1O[C@@H]1C(=O)N[C@@H](CO)C(=O)N1CCC[C@H]1C(=O)N1CCC[C@H]1C(=O)N1CCC[C@H]1C(=O)N[C@@H](CO)C(N)=O)C(=O)N1CCC[C@H]1C(=O)N[C@H](C(N)=O)[C@@H](C)O (X1-SPPPS-NH2)
Q = CC(C)C[C@H](NC(=O)[C@H]1O[C@@H]1C(=O)N[C@H](C(=O)N1CCC[C@H]1C(=O)N1CCC[C@H]1C(=O)N1CCC[C@H]1C(=O)N[C@@H](CO)C(N)=O)[C@@H](C)O)C(=O)N1CCC[C@H]1C(=O)N[C@H](C(N)=O)[C@@H](C)O (X1-TPPPS-NH2)
Hey, between P and Q which has a smaller measured Ki? Returns: label corresponding to the selected item.
Q
(Q: 8.38 µM, P: 12.5 µM)

----------
TEST_DESCRIPTION: Retention time of the compound by RP-HPLC analysis
Format: physicochemical
Peptide text beside a SMILES is read from it. * marks the point of attachment. X5 = CC(C)C[C@H](NC(=O)[C@H]1O[C@@H]1C(=O)*)C(=O)N[C@@H](Cc1c[nH]c2ccccc12)C(=O)N[C@H](C(N)=O)[C@@H](C)O
ASSAY_METRIC: Retention time (min)
Reply numerically in min, unit not repeated.

Need Retention time of CC(C)C[C@H](NC(=O)[C@H]1O[C@@H]1C(=O)N[C@@H](CO)C(=O)N1CCC[C@H]1C(=O)N1CCC[C@H]1C(=O)N1CCC[C@H]1C(=O)N[C@@H](CO)C(N)=O)C(=O)N[C@@H](Cc1c[nH]c2ccccc12)C(=O)N[C@H](C(N)=O)[C@@H](C)O (X5-SPPPS-NH2) , thanks.
12.5
